Below: a set of entries, each annotated with reported EC10, linear transformed.
# measuredOn: Aryl hydrocarbon receptor (Rattus norvegicus)
# Sequence (P41738 10-853): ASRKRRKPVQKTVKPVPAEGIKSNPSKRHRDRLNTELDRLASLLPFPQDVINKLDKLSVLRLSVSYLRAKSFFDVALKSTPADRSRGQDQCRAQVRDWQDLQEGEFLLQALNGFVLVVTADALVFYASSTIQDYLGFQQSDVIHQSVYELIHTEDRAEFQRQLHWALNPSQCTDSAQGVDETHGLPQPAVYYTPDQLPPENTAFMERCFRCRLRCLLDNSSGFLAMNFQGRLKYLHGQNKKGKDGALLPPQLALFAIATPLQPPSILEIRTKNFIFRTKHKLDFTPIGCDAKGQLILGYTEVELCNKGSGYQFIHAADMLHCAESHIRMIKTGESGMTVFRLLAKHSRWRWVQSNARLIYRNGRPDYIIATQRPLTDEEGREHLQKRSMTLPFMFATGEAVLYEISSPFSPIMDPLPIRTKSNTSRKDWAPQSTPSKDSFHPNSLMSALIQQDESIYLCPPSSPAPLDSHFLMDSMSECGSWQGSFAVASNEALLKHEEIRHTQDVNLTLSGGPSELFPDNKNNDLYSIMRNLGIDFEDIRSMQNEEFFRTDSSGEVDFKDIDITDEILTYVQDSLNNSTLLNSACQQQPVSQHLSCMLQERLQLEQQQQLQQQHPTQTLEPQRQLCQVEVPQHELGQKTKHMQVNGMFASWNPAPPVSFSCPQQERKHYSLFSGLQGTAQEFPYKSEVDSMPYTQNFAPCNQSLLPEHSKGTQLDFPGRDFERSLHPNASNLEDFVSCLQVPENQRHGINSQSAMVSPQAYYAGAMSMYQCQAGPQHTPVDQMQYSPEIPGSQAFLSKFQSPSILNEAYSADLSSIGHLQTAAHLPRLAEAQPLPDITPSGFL
# details: Bioassay AhR; dosing range all
Answer with a number only.

Examples with their reported EC10, linear transformed follow.
CC(C)(c1ccc(O)c(-c2ccccc2)c1)c1ccc(O)c(-c2ccccc2)c1 [BPPH, 2,2-Bis(2-hydroxy-5-biphenylyl)propane]    9.38E-06
CC(C)(c1cc(Cl)c(O)c(Cl)c1)c1cc(Cl)c(O)c(Cl)c1    7.24E-05
O=C(OCc1ccccc1)c1ccc(O)cc1 [BzPB, Benzyl 4-hydroxybenzoate]    1.73E-04
Cc1cc(Cc2cc(C)c(O)c(C)c2)cc(C)c1O [TMBPF, Bis(3,5-dimethyl-4-hydroxyphenyl)methane]    1.03E-04

Short answer please: EC10, linear transformed, Aryl hydrocarbon receptor (Rattus norvegicus), entry "Oc1ccc(Sc2ccc(O)cc2)cc1"
9.56E-05

Which EC10, linear transformed is reported with Aryl hydrocarbon receptor (Rattus norvegicus) for this entry: "Cc1ccc(S(=O)(=O)NC(=O)Nc2cccc(OS(=O)(=O)c3ccc(C)cc3)c2)cc1" ?
2.45E-05

Enter reported EC10, linear transformed observed with Aryl hydrocarbon receptor (Rattus norvegicus) for Oc1ccc(Cc2ccc(O)cc2)cc1 [BPF, Bis(4-hydroxyphenyl)methane]
2.17E-04

Give the reported EC10, linear transformed for CC1(C)[C@H](O)C(C)(C)[C@H]1O [Trans TMCD] (system: Aryl hydrocarbon receptor (Rattus norvegicus)).
8.49E-03

----------
Each entry below carries its reported TKERα.
# measuredOn: Estrogen Receptor ERα (Homo sapiens, UniProt P03372)
# Sequence (P03372 311-547 limits assumed): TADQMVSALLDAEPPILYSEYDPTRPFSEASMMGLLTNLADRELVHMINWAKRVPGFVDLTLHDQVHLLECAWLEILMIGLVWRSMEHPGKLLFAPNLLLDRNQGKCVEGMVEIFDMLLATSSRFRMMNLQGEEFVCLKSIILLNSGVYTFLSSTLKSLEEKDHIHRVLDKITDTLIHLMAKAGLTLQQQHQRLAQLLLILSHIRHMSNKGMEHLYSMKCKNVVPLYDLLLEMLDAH
# measurementNotes: aCYP oxidation followed by ERα-UAS-bla GripTite assay (TK-Ratio of effect);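 further: EC10 before oxidation divided by EC10 after oxidation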
# Assay type: cell-based
# details: Table S10; TKERα-Ratio
Note: the reply should be a number with no unit written.

Oc1ccc(Cc2ccc(O)cc2)cc1 [BPF, Bis(4-hydroxyphenyl)methane]    0.964

Which TKERα value belongs to CC(C)(c1ccc(O)cc1)c1ccc(O)cc1 [BPA, 4,4'-(Propane-2,2-diyl)diphenol, reference compound] ?
0.827

Could you share which TKERα value was measured for COC(=O)C(c1ccc(O)cc1)c1ccc(O)cc1 [Bz, Methyl bis(4-hydroxyphenyl)acetate] ?
0.7263

Consider the compound shown here: Oc1ccc(Sc2ccc(O)cc2)cc1 [BPT, 4,4'-Thiodiphenol] What is its recorded TKERα?
0.2502

Requested read-out: TKERα. Entry: CC(C)c1cc(C(C)(C)c2ccc(O)c(C(C)C)c2)ccc1O [BPG]
0.2649

Given the compound O=C(OCc1ccccc1)c1ccc(O)cc1 [BzPB, Benzyl 4-hydroxybenzoate] , what is its reported TKERα?
0.6192

What value of measured TKERα is listed for O=S(=O)(c1ccc(O)cc1)c1ccc(O)cc1 [BPS, 4,4'-Sulfonyldiphenol] ?
1.115

Form field: reported TKERα of C=CCOc1ccc(S(=O)(=O)c2ccc(O)cc2)cc1 [BPS-MAE, 4-[[4-(Allyloxy)phenyl]sulfonyl]phenol]
0.9842

Can you look up the measured TKERα of CCC(C)(c1ccc(O)cc1)c1ccc(O)cc1 [BPB, 4,4'-(Butane-2,2-diyl)diphenol] for me?
0.2982

----------
# measurementNotes: Acidity constant (pKa) measurement, Sirius T3 UV-metric, and speciation at pH 7.4
# details: pH 7.4; from experimental pKa
Attribute: αneutral % (fraction of neutral species)
Lab book: enter the figure in %, no units written.

Oc1ccc(C2(c3ccc(O)cc3)CCCCC2)cc1 [BPZ, 1,1'-Bis(4-hydroxyphenyl)cyclohexane]    99
CC(C)(c1ccc(OCC2CO2)cc1)c1ccc(OCC2CO2)cc1 (centres unmarked)    100
O=S(=O)(c1ccc(O)cc1)c1ccccc1O [2,4-BPS, 2,4'-Dihydroxydiphenyl sulfone]    43
CC(C)(c1ccc(O)cc1)c1ccc(O)cc1 [BPA, 4,4'-(Propane-2,2-diyl)diphenol, reference compound]    100
O=C(OCc1ccccc1)c1ccc(O)cc1 [BzPB, Benzyl 4-hydroxybenzoate]    99
Cc1ccc(S(=O)(=O)NC(=O)Nc2cccc(OS(=O)(=O)c3ccc(C)cc3)c2)cc1    0.089
O=S(=O)(c1ccc(O)cc1)c1ccc(O)cc1    39

Name the reported αneutral % (fraction of neutral species) value associated with the molecule "CCC(C)(c1ccc(O)cc1)c1ccc(O)cc1"
99

----------
# System: HEK293H (PPARγ)
# details: PPARγ bioassay cytotoxicity; dosing range all; linear model
metric: IC10, linear
# respond with the number and nothing more

CC(c1ccc(O)cc1)c1ccc(O)cc1    6.46E-05

Recorded IC10, linear for "Cc1ccc(S(=O)(=O)NC(=O)Nc2ccc(Cc3ccc(NC(=O)NS(=O)(=O)c4ccc(C)cc4)cc3)cc2)cc1" , please?
4.34E-05

// lookup IC10, linear for C=CCOc1ccc(S(=O)(=O)c2ccc(O)cc2)cc1 [BPS-MAE, 4-[[4-(Allyloxy)phenyl]sulfonyl]phenol]
9.34E-05

IC10, linear lookup needed for "CC(C)c1cc(C(C)(C)c2ccc(O)c(C(C)C)c2)ccc1O" , thanks.
5.23E-06

Give its IC10, linear value. Item: "Oc1ccc(Sc2ccc(O)cc2)cc1"
2.13E-05

Suppose we examine the molecule Oc1ccc(Cc2ccc(O)cc2)cc1 [BPF, Bis(4-hydroxyphenyl)methane] ; what IC10, linear value has been reported?
1.05E-04

Requested field: IC10, linear. Item: "O=S(=O)(c1ccc(O)cc1)c1ccc(O)cc1"
6.15E-04

Please give the measured IC10, linear for this molecule: "Cc1ccc(S(=O)(=O)NC(=O)Nc2cccc(OS(=O)(=O)c3ccc(C)cc3)c2)cc1"
2.22E-05

Reported IC10, linear, molecule "CCC(C)(c1ccc(O)cc1)c1ccc(O)cc1" : ____
1.29E-05

What value of IC10, linear has been reported for the following molecule? COC(=O)C(c1ccc(O)cc1)c1ccc(O)cc1 [Bz, Methyl bis(4-hydroxyphenyl)acetate]
3.71E-04

----------
Items are presented alongside their recorded IC10, H4IIe, AhR.
# Test system: H4IIe (AhR CALUX)
# details: cytotoxicity, H4IIe (AhR assay cells)
All answers are understood in µM, so give the number only.

For the compound C=CCOc1ccc(S(=O)(=O)c2ccc(O)cc2)cc1 [BPS-MAE, 4-[[4-(Allyloxy)phenyl]sulfonyl]phenol] , what IC10, H4IIe, AhR is on record?
82.4

What value of IC10, H4IIe, AhR has been reported for the following compound? "Oc1ccc(C(c2ccc(O)cc2)(C(F)(F)F)C(F)(F)F)cc1"
31.1

Consider the compound O=C(OCc1ccccc1)c1ccc(O)cc1 [BzPB, Benzyl 4-hydroxybenzoate] and give its measured IC10, H4IIe, AhR.
174

Given "CC(c1ccccc1)(c1ccc(O)cc1)c1ccc(O)cc1" , state its recorded IC10, H4IIe, AhR.
95.9

----------
# measuredOn: Peroxisome proliferator-activated receptor γ (Homo sapiens, UniProt P37231)
# Sequence (P37231 238-505 limits assumed): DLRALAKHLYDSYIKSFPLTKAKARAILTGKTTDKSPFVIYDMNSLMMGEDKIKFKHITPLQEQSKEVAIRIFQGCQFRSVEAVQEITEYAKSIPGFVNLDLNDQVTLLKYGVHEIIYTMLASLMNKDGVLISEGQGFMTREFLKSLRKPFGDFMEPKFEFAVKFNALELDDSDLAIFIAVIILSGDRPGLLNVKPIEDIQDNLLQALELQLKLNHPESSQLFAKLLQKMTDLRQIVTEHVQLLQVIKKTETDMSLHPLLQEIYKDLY
# measurementNotes: cell-based
# details: input of the ToxPi score, values up to 1.00
Parameter log(1/EC10) PPARγ: see the listing below.

Item: C=CCOc1ccc(S(=O)(=O)c2ccc(O)cc2)cc1 [BPS-MAE, 4-[[4-(Allyloxy)phenyl]sulfonyl]phenol] Test system: Peroxisome proliferator-activated receptor γ (Homo sapiens, UniProt P37231) Read-out: log(1/EC10) PPARγ Value: ?
0.88

Requested read-out log(1/EC10) PPARγ, target or system Peroxisome proliferator-activated receptor γ (Homo sapiens, UniProt P37231), entry O=C(OCc1ccccc1)c1ccc(O)cc1 [BzPB, Benzyl 4-hydroxybenzoate]
0.80

Lookup: log(1/EC10) PPARγ / Peroxisome proliferator-activated receptor γ (Homo sapiens, UniProt P37231) / Cc1ccc(S(=O)(=O)NC(=O)Nc2ccc(Cc3ccc(NC(=O)NS(=O)(=O)c4ccc(C)cc4)cc3)cc2)cc1 [BTUM]
0.93

Record lookup: for Peroxisome proliferator-activated receptor γ (Homo sapiens, UniProt P37231), what log(1/EC10) PPARγ belongs to Oc1ccc(Sc2ccc(O)cc2)cc1 [BPT, 4,4'-Thiodiphenol] ?
0.85

Given the entry CC(C)c1cc(C(C)(C)c2ccc(O)c(C(C)C)c2)ccc1O [BPG] , what log(1/EC10) PPARγ was observed with Peroxisome proliferator-activated receptor γ (Homo sapiens, UniProt P37231)?
0.98

Query log(1/EC10) PPARγ on Peroxisome proliferator-activated receptor γ (Homo sapiens, UniProt P37231) for Cc1ccc(S(=O)(=O)NC(=O)Nc2cccc(OS(=O)(=O)c3ccc(C)cc3)c2)cc1 [Pergafast]
0.87
